- Test system: MCF-7 cells
- measurement.description: Inhibition of growth of cultured MCF-7 cells (cell number 48 h after a single dose)
- Type: cell-based, human
- condition.description: activity vs. 4-HPR standard, all at 10^−5 M, 48 hours after a single dose
measured.endpoint: growth inhibition

In the examples that follow, each entry is paired with its recorded growth inhibition.
# compound, tested.system, growth inhibition
measured = [
    ("CC1=C(/C=C/C(C)=C/C=C/C(C)=C/C(=O)Nc2cc(C)c(O)cc2C)C(C)(C)CCC1", "MCF-7 cells", "−"),
    ("CC1=C(/C=C/C(C)=C/C=C/C(C)=C/C(=O)Nc2ccc(O)cc2Cl)C(C)(C)CCC1 [Compound 10, N-(2′-chloro-4′-hydroxyphenyl)retinamide]", "MCF-7 cells", "−"),
    ("CC1=C(/C=C/C(C)=C/C=C/C(C)=C/C(=O)Nc2cccc(C(=O)O)c2O)C(C)(C)CCC1", "MCF-7 cells", "−"),
    ("CC1=C(/C=C/C(C)=C/C=C/C(C)=C/C(=O)Nc2cc(Cl)c(O)c(Cl)c2)C(C)(C)CCC1", "MCF-7 cells", "−"),
]

Read the next record carefully.
growth inhibition for CC1=C(/C=C/C(C)=C/C=C/C(C)=C/C(=O)Nc2cc(C(C)(C)C)ccc2O)C(C)(C)CCC1 ?
−
